assayTarget: T1, Human MuSK (R&D Systems, cat. 10189-MK, histidine tag) (human, UniProt O15146 24-495)
T1 construct: Bought protein; also called human monomeric MuSK-6xhis; not shown: histidine tag (6xhis)
T1 sequence: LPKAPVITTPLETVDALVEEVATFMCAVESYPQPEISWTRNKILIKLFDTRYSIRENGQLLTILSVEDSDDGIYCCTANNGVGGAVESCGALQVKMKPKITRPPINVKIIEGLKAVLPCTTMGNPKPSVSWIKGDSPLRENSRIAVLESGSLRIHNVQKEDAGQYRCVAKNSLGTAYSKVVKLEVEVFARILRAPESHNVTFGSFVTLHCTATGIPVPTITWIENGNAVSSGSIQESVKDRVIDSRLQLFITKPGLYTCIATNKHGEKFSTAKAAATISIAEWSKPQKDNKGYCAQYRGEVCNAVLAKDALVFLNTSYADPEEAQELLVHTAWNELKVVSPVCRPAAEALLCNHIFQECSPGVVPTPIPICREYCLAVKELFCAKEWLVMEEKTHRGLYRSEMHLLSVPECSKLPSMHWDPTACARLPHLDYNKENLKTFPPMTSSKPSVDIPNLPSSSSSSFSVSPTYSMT
assaySummary: SPR (Biacore), MuSK-coated chip presaturated with 500 nM 3D9b (competitor)
experimentalReadout: extra amplitude (%)
API: value field is a number in %; no unit string.

Prompt line: Give the reported value of extra amplitude (%) for this record: 3D9b (antibody, human IgG1, kappa, L234A L235A, V domains shown) VH: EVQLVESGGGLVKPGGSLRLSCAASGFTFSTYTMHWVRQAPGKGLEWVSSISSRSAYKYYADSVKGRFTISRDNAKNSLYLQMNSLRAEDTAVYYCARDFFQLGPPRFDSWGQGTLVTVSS VL: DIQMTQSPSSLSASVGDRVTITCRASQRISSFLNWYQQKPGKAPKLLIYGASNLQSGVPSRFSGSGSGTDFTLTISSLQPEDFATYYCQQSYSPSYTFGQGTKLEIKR
Response line: 1

These measurements were taken from patent US20230110188A1.
